Source listed as paper PMC5349910.

test system: MOLM-13 cells; assay: MTS cell viability assay, MOLM-13; type: cell-based, human; details: Homo sapiens, MOLM-13, 72 h, MTS, 72 h; AML-FLT3-ITD (heterozygous); supplement values ± SEM; read-out: MOLM-13 EC50
attribute-measured: EC50 (nM)
Report as a plain number; the unit nM is understood.

The examples below pair each entry with its known result.
Task item: Specify EC50 for COCCOc1ccc2c(NCCc3cnc(NC(=O)Nc4cccc(Cl)c4)s3)ncnc2c1 , system MOLM-13 cells.
Reply: 8

Task item: Specify EC50 for Cc1ccc(Cl)cc1NC(=O)Nc1ncc(CCNc2ncnc3cc(OCCCN(C)C)ccc23)s1 , system MOLM-13 cells.
Reply: 12.7

Here is the next item to consider.
Task item: Specify EC50 for COc1cccc(NC(=O)Nc2ncc(CCNc3ncnc4cc(OCCCN(C)C)ccc34)s2)c1 , system MOLM-13 cells.
Reply: 12.4
